Reference source: the supplement of paper PMC7877785

- Assay Text: self-splicing fitness, log relative to wild type (ln ratio); higher = more splicing; Tetrahymena group I intron in knt gene, E. coli kanamycin selection, DiMSum; sequences stand for … in CUCUCU…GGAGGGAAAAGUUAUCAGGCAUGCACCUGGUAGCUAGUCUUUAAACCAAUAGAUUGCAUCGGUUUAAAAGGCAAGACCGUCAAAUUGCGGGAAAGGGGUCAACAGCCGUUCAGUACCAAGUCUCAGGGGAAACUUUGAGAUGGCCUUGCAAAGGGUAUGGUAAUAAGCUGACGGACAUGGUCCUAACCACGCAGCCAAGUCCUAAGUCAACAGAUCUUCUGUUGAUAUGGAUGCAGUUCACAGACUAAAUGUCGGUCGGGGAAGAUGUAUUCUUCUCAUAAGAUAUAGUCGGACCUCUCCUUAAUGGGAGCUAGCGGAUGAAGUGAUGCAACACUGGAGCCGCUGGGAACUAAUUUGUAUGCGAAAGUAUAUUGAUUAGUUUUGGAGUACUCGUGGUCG;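 also: selection with 25 µg/mL kanamycin versus none on LB agar overnight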
- Experimental Setup: 30 °C
Reported Property: self-splicing fitness (ln)

Item GACCAGCAAUAUUACGGUAC : provide self-splicing fitness (ln)
-2.05

Tell us which self-splicing fitness (ln) value is on record for ACUCAGCAAUAUUACGCGUU
-1.91

In one line, give reported self-splicing fitness (ln) of the entry GAUUAGCAAUAUUACGUAUA .
-2.65

Return self-splicing fitness (ln) for the following sequence: GCUUAGCAAUAUUACGUUGU
-1.5

Identify the reported self-splicing fitness (ln) for the following entry. UCUGAGCAAUAUUACGACUG
-3.15

Dear colleague, please send me the reported self-splicing fitness (ln) for UAGAAGCAAUAUUACGCCUA when you can.
-0.42

Indicate the recorded self-splicing fitness (ln) value for this sequence: AUUAAGCAAUAUUACGGCUG
-0.405

Return self-splicing fitness (ln) for the following sequence: AACUAGCAAUAUUACGCAAU
-2.35

Recall and state the measured self-splicing fitness (ln) for AGAAAGCAAUAUUACGAGGC .
-3.15

Note self-splicing fitness (ln) for the sequence shown: GACUAGCAAUAUUACGGUUG
-1.25

Name the recorded self-splicing fitness (ln) of the sequence listed here: UUGCAGCAAUAUUACGCUCA
-0.833

Please report the measured self-splicing fitness (ln) for GUCUAGCAAUAUUACGGAAU
-0.979

Determine from records and report self-splicing fitness (ln) for ACAUAGCAAUAUUACGCGAA
-3.3

# return recorded self-splicing fitness (ln) for input ACCUAGCAAUAUUACGCUCG
-1.43

State, in one line, measured self-splicing fitness (ln) of AUGGAGCAAUAUUACGGAUC
-2.51

Give reported self-splicing fitness (ln) value for GCGCAGCAAUAUUACGUUAC
-2.71

Provide self-splicing fitness (ln) value for the following sequence: GGGAAGCAAUAUUACGUCAC
-3.08

Return self-splicing fitness (ln) for the following sequence: AGCAAGCAAUAUUACGGUCA
-0.46

Return reported self-splicing fitness (ln). Input sequence: ACUGAGCAAUAUUACGACAC
-3.62

Return self-splicing fitness (ln) (reported value) for this sequence: UUUAAGCAAUAUUACGCGGU
-3.46

Retrieve self-splicing fitness (ln) measured for UACGAGCAAUAUUACGCAAG and print it.
-2.57

Entry CACGAGCAAUAUUACGUAAC needs its self-splicing fitness (ln) filled in; supply it.
-2.41

Please indicate self-splicing fitness (ln) recorded for CUCCAGCAAUAUUACGGGAA
-1.92

Identify measured self-splicing fitness (ln) corresponding to AGCUAGCAAUAUUACGUGCG
-1.02

Identify self-splicing fitness (ln) associated with the sequence GAACAGCAAUAUUACGUGGA
-2.32

Note down self-splicing fitness (ln) recorded for UGAUAGCAAUAUUACGCUGA
-1.79

Please list self-splicing fitness (ln) recorded for the sequence GCACAGCAAUAUUACGCUGG
-3.29

Give self-splicing fitness (ln) for ACUAAGCAAUAUUACGCGGU
-2.65

Indicate the recorded self-splicing fitness (ln) value for this sequence: CACCAGCAAUAUUACGGUCU
-1.44

Retrieve self-splicing fitness (ln) measured for CGCUAGCAAUAUUACGCUAG and print it.
-2.63

Quick one: give measured self-splicing fitness (ln) for GAGCAGCAAUAUUACGGUCU
-0.727

Look up and report measured self-splicing fitness (ln) for this entry: GCCCAGCAAUAUUACGACUA
-1.54

Complete the entry with self-splicing fitness (ln) for AUCUAGCAAUAUUACGAUGG
-3.59

Please look at this sequence and report its self-splicing fitness (ln): GUCUAGCAAUAUUACGUUGC
-2.55
